Values compiled from patent US20220356174A1.

Molecular target: FL-SMARCA2 (full-length human SMARCA2 isoform 1) (Homo sapiens)
Construct: FLAG tag (YKDDDDK) (C); made in house; host or cells: Sf21 insect cells (baculovirus, pFastBacI)
Experiment: SMARCA2 ATPase activity assay (ADP-Glo, chicken mononucleosome substrate)
Assay type: biochemical
Conditions: Table 3d.1; ATPase assay, enzyme 5 nM, ATP 250 uM, chicken mononucleosome 10 nM, 30 min preincubation; read-out: FL-SMARCA2 IC>50
Some molecules, each annotated with its measured IC50.
Measurement name: IC50 (µM)

>>> value("CNC(=O)C#Cc1cc(C(=O)Nc2cc(F)c(=O)n(CC(F)F)c2)sc1Cl [Compound 72d]")
0.481
>>> value("CN1CC(C#Cc2cc(C(=O)Nc3cc(F)c(=O)n(CC(F)F)c3)sc2Cl)CCC1=O (centres unmarked) [Compound 118d]")
0.245
>>> value("O=C(Nc1cc(F)c(=O)n(CC(F)F)c1)c1cc(C#CCn2cccn2)c(Cl)s1 [Compound 123d]")
0.52
>>> value("COc1ncc(C(=O)Nc2cc(F)c(=O)n(CC(F)F)c2)cc1F [Compound 42d]")
27.6
>>> value("N#Cc1cc(C(=O)Nc2cc(C(F)F)c(=O)n(CC(F)F)c2)sc1C(F)(F)F [Compound 76d]")
1.31
>>> value("O=C(Nc1cc(F)c(=O)n(CC(F)F)c1)c1cc(C#C[C@H]2CCC[C@H](O)C2)c(Cl)s1 [Compound 129d]")
0.0584
>>> value("O=C(Nc1cc(F)c(=O)n(CC(F)F)c1)c1cc(C#Cc2cn3c(n2)COCC3)c(Cl)s1 [Compound 90d]")
1.39
>>> value("O=C(Nc1cc(F)c(=O)n(CC(F)F)c1)c1cc(C#CC2COCCO2)c(Cl)s1 (centres unmarked) [Compound 114d]")
0.112
>>> value("CC(N)CC#Cc1cc(C(=O)Nc2cc(F)c(=O)n(CC(F)F)c2)sc1Cl (centres unmarked) [Compound 139d]")
3.1
>>> value("O=C(Nc1cc(F)c(=O)n(CC(F)F)c1)c1cc(C#CC2CNCCO2)c(Cl)s1 (centres unmarked) [Compound 109d]")
1.06
>>> value("Cn1ccc(C#Cc2cc(C(=O)Nc3cc(F)c(=O)n(CC(F)F)c3)sc2Cl)cc1=O [Compound 65d]")
2.36
>>> value("CN(C)C(=O)C#Cc1cc(C(=O)Nc2cc(F)c(=O)n(CC(F)F)c2)sc1Cl [Compound 71d]")
0.536
>>> value("Cc1cc(=O)n(C)cc1NC(=O)C1CCCN(Cc2ccccc2)C1 (centres unmarked)")
32
>>> value("O=C(Nc1cc(F)c(=O)n(CC(F)F)c1)c1cc(-c2ccco2)c(Cl)s1 [Compound 112d]")
0.345

###

Target: FL-SMARCA2 (full-length human SMARCA2 isoform 1) (Homo sapiens, UniProt P51531)
Construct: FLAG tag (YKDDDDK) (C); made in house; host or cells: Sf21 insect cells (baculovirus, pFastBacI)
Sequence (P51531 with tags, fused parts or gaps): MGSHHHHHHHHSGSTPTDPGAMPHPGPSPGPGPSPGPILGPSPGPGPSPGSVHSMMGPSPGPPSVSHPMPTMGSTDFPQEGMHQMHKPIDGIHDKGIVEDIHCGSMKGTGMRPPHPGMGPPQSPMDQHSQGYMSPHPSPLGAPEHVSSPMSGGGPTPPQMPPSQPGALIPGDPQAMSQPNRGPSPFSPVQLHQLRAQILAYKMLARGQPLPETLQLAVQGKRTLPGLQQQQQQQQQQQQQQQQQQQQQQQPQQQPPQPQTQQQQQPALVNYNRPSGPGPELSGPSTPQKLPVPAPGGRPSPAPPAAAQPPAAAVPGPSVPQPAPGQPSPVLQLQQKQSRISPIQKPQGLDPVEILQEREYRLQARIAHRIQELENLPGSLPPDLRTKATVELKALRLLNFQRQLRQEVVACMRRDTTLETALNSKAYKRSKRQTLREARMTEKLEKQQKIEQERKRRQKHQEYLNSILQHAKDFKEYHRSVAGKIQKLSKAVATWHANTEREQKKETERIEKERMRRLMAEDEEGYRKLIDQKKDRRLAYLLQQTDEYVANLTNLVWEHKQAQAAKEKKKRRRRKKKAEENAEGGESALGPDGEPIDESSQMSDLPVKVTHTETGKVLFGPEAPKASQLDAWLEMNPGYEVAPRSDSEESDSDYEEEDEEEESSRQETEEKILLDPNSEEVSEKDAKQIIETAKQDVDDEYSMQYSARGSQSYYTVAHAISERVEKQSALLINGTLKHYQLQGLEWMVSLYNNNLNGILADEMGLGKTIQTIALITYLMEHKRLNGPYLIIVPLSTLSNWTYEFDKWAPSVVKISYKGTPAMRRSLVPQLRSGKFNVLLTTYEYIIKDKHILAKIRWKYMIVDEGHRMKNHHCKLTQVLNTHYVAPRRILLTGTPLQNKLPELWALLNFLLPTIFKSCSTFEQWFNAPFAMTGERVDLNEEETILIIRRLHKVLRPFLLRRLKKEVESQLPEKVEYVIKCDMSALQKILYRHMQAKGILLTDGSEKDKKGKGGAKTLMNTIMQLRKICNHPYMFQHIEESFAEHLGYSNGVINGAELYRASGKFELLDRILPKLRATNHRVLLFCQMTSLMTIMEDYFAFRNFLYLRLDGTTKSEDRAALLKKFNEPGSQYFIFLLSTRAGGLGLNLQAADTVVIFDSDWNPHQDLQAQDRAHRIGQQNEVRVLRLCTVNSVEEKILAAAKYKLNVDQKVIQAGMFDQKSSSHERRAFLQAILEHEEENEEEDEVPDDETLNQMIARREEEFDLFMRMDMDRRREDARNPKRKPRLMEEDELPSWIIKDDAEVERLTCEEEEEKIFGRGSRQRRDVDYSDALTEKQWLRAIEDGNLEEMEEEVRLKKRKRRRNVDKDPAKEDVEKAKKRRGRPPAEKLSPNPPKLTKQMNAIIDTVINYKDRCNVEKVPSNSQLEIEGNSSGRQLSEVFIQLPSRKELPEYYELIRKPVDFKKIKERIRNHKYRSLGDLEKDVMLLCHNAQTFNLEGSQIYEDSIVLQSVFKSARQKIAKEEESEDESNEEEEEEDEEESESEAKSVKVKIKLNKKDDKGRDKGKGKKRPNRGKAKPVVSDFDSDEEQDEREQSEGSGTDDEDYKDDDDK
Experiment: SMARCA2 ATPase activity assay (ADP-Glo, chicken mononucleosome substrate)
Assay type: biochemical
Conditions: Table 3b.1; SMARCA2 5 nM, ATP 250 uM, mononucleosome 10 nM
pIC50: −log10 of the molar value.
Measurement name: pIC50

>>> value("CCn1cc(NC(=O)C2CCCCC2)ccc1=O [Compound 12b]")
"< 4.30"
>>> value("CCn1cc(NC(=O)c2ccc(Cl)cc2)ccc1=O [Compound 7b]")
"< 4.30"
>>> value("O=C(Nc1cc(F)c(=O)n(CCF)c1)c1ccc(Cl)c(Cl)c1 [Compound 17b]")
6.19

###

Target: FL-SMARCA2 (full-length human SMARCA2 isoform 1) (Homo sapiens, UniProt P51531)
Construct: FLAG tag (YKDDDDK) (C); made in house; host or cells: Sf21 insect cells (baculovirus, pFastBacI)
Assay: SMARCA2 ATPase activity assay (ADP-Glo, chicken mononucleosome substrate)
Type: biochemical
Conditions: Table 3.1; ATPase assay, enzyme 5 nM, ATP 250 uM, chicken mononucleosome 10 nM, 30 min preincubation
pIC50: −log10 of the molar value.
Some molecules, each annotated with its measured pIC50.
Measurement name: pIC50

>>> value("CCn1cc(NC(=O)c2cc(I)cn2C)ccc1=O")
4.33
>>> value("O=C(Nc1cc(NCC2CCCN2)c(=O)n(CCF)c1)c1cc(Cl)c(Cl)s1 (stereo not shown)")
4.78
>>> value("O=C(Nc1cc(F)c(=O)n(CCF)c1)c1cc(F)c(C(F)F)s1")
7.46
>>> value("O=C(Nc1cc(Cl)c(=O)n(CCF)c1)c1cc(Cl)n[nH]1")
6.63
>>> value("O=C(Nc1cc(F)c(=O)n(CC(F)F)c1)c1cc(C#Cc2ccncc2)c(Cl)s1")
7.78
>>> value("CS(=O)(=O)c1cc(C(=O)Nc2cc(F)c(=O)n(CCF)c2)sc1Cl")
6.03
>>> value("CCn1cc(NC(=O)c2cc(Cl)c(Cl)n2C)ccc1=O")
5.56
>>> value("Cn1c(C(=O)Nc2cc(F)c(=O)n(CCF)c2)cnc1Cl")
5.46
>>> value("N#Cc1cc(C(=O)Nc2cc(F)c(=O)n(CCF)c2)[nH]c1Cl")
6.22
>>> value("CCn1cc(NC(=O)c2cc(C#N)c(Cl)s2)cc(F)c1=O")
7.07
>>> value("O=C(Nc1cc(F)c(=O)n(CC(F)F)c1)c1cc(C#CC2COC2)c(Cl)s1")
7.64

###

Tested on: various lung cancer cell lines
Assay: Long term proliferation (LTP) assay in various cancer cell lines
Assay type: cell-based
Conditions: Homo sapiens, HT-1376, HT1376; Bladder Cancer transitional cell carcinoma
Measurement name: IC50

>>> value("O=C(Nc1cc(F)c(=O)n(CC(F)F)c1)c1cc(Cl)c(C(F)(F)F)s1 [Compound 298]")
"385 nM"

###

Target: FL-SMARCA2 (full-length human SMARCA2 isoform 1) (Homo sapiens, UniProt P51531)
Construct: FLAG tag (YKDDDDK) (C); made in house; host or cells: Sf21 insect cells (baculovirus, pFastBacI)
Assay: SMARCA2 ATPase activity assay (ADP-Glo, chicken mononucleosome substrate)
Assay type: biochemical
Conditions: Table 3.1; ATPase assay, enzyme 5 nM, ATP 250 uM, chicken mononucleosome 10 nM, 30 min preincubation
pIC50: −log10 of the molar value.
Measurement name: pIC50

>>> value("CCc1cc(C(=O)Nc2ccc(=O)n(CC)c2)sc1Cl")
"< 4.30"
>>> value("CCn1cc(NC(=O)c2cc(Cl)c(Cl)n2Cc2ccccc2)ccc1=O")
"< 4.30"
>>> value("CCn1cc(NC(=O)c2cn(C(F)(F)F)c(Cl)n2)ccc1=O")
"< 4.30"
>>> value("CCn1cc(NC(=O)c2cc(Cl)c(Cl)s2)cc(OCCN2CCOCC2)c1=O")
"< 4.30"
>>> value("CCn1cc(NC(=O)c2cc(C(C)C)n(-c3ccccn3)n2)ccc1=O")
"< 4.30"
>>> value("CCn1cc(NC(=O)c2cc(Br)cs2)ccc1=O")
4.37
>>> value("N#Cc1cc(C(=O)Nc2ccc(=O)n(CCF)c2)sc1Cl")
6.80
>>> value("CCn1cc(NC(=O)c2cnc(NC(C)C)s2)ccc1=O")
"< 4.30"
>>> value("O=C(Nc1cc(NCCN2CCOCC2)c(=O)n(CCF)c1)c1cc(Cl)c(Cl)s1")
5.20
>>> value("CCn1c(C(=O)Nc2ccc(=O)n(CC)c2)cc(Cl)c1Cl")
4.90
>>> value("CCn1cc(NC(=O)c2csc(C#N)n2)ccc1=O")
"< 4.30"

###

Molecular target: FL-SMARCA2 (full-length human SMARCA2 isoform 1) (Homo sapiens, UniProt P51531)
Construct: FLAG tag (YKDDDDK) (C); made in house; host or cells: Sf21 insect cells (baculovirus, pFastBacI)
Experiment: SMARCA2 ATPase activity assay (ADP-Glo, chicken mononucleosome substrate)
Type: biochemical
Details: Table 3.1; ATPase assay, enzyme 5 nM, ATP 250 uM, chicken mononucleosome 10 nM, 30 min preincubation
Measurement name: IC50 (µM)

>>> value("N#Cc1ncc(C(=O)Nc2cc(F)c(=O)n(CCF)c2)s1 [Compound 138]")
0.00642
>>> value("O=C(Nc1cc(F)c(=O)n(CC(F)F)c1)c1cc(Cl)c(C(F)F)s1 [Compound 296]")
0.094
>>> value("N#Cc1cc(C(=O)Nc2ccc(=O)n(CC(F)F)c2)sc1Cl [Compound 320]")
0.151
>>> value("CCn1cc(NC(=O)c2cc(C#N)c(Cl)s2)ccc1=O [Compound 106]")
0.417
>>> value("CCn1cc(NC(=O)c2ccc(I)s2)ccc1=O [Compound 46]")
11.1
>>> value("O=C(Nc1cc(F)c(=O)n(CC(F)F)c1)c1cc(Cl)no1 [Compound 326]")
3.78
>>> value("CCn1cc(NC(=O)c2cc(Cl)c(Cl)[nH]2)ccc1=O [Compound 17]")
4.06
>>> value("N#Cc1[nH]c(C(=O)Nc2ccc(=O)n(CCF)c2)cc1Cl [Compound 231]")
0.142
>>> value("O=C(Nc1cc(NCCN2CCCC2)c(=O)n(CCF)c1)c1cc(Cl)c(Cl)s1 [Compound 261]")
7.37
